- Protocol description: qHTS for Inflammasome Signaling Inhibitors: IL-1-beta AlphaLISA screen against the NCATS CANVASS Library (AID 1347379);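 further: human THP-1 cells primed with LPS then triggered with ATP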
- Condition summary: THP-1 LPS/ATP, IL-1B AlphaLISA secretion, 16 h; series mostly up to 57.5 µM
Results filed as inconclusive are left out. The source made the active and inactive calls. The call rests on the fitted dose curve; in most records, active means well fitted inhibition curve with a large enough effect; inconclusive means small, poorly fitted or top-dose-only effect; inactive means flat fitted curve, though single readings scatter.
I would appreciate it if you answered using one of these outcomes: active, inactive

{"Compound": "CN1CC[C@]23c4ccccc4N[C@H]1[C@]21CCN(C)[C@H]3Nc2ccccc21", "Classification": "inactive"}
{"Compound": "C=C1C(=O)O[C@H]2[C@H]1CCC(C)=C1CC[C@@](C)(O)[C@@H]12", "Classification": "active"}
{"Compound": "COc1c(O)cc2c(c1O)C(=O)c1c(coc1C)C2=O", "Classification": "inactive"}
{"Compound": "CC(=O)N[C@H](C)c1nc(/C=C/C=C/C(=O)CC2CC(=O)CC[C@]2(C)O)cs1 (stereo partly specified)", "Classification": "inactive"}
{"Compound": "CC(C)=CCC/C(C)=C/Cc1cc([C@@H]2CC(=O)c3c(cc(O)c(CC=C(C)C)c3O)O2)ccc1O", "Classification": "inactive"}

INPUT: # fetch the recorded call for `O=C(OC[C@H]1O[C@@H](OC(=O)c2cc(O)c(O)c(O)c2)[C@H](OC(=O)c2cc(O)c(O)c(O)c2)[C@@H](OC(=O)c2cc(O)c(O)c(O)c2)[C@@H]1OC(=O)c1cc(O)c(O)c(O)c1)c1cc(O)c(O)c(O)c1` here
OUTPUT: inactive

INPUT: Recorded call for `CN1CC[C@@]2([C@@]34CCN(C)[C@@H]3Nc3ccccc34)c3ccccc3N[C@@H]12` ?
OUTPUT: inactive

INPUT: Tell me the assay call for `C/C=C/c1cc2c(c(=O)o1)C(=O)[C@@H](O)[C@H](C)O2` please.
OUTPUT: active

---

Listed here: items and their measured activity change, negative = inhibition.
- Protocol description: AP1 Signaling Pathway (AID 357);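 further: ME-180 reporter cells stimulated with EGF at its EC50 level; on the % scale 0 is the no-effect control and ±100 the full control effect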
- Condition summary: ME-180 (cervical carcinoma) AP-1-bla reporter, EGF-induced, beta-lactamase ratio, 5 h; at 7.69 µM (top of the series) unless noted
Results filed as inconclusive are left out.
# value in %; strip the unit string

Use the examples below as a reference point.
{"Given smiles": "CC(=O)NCCNc1ncnc2ccc(-c3cccc(NS(C)(=O)=O)c3)cc12", "Units text": "%", "activity change, negative = inhibition": 3.51}
{"Given smiles": "CC(=O)N1CCC2(CC1)CN(C(c1ccccc1)c1ccccc1)C2", "Units text": "%", "activity change, negative = inhibition": 14.1}
{"Given smiles": "O=C(Nc1ccccc1)N1CC2(CCN(C(=O)c3ccncc3)CC2)C1", "Units text": "%", "activity change, negative = inhibition": 12.1}
{"Given smiles": "COc1ccc(NC(=O)N2CCC3(CC2)CCN(S(=O)(=O)c2ccccc2)CC3)cc1", "Units text": "%", "activity change, negative = inhibition": -24}
{"Given smiles": "COc1ncc2nc(-c3ccc(F)cc3)c(=O)n(-c3ccccc3)c2n1", "Units text": "%", "activity change, negative = inhibition": -5.39}
{"Given smiles": "COc1ccc(Oc2ncc3ncc(=O)n(C[C@H]4CCCO4)c3n2)cc1", "Units text": "%", "activity change, negative = inhibition": -24.4}

get_value(item= `CN(C)Cc1ccccc1-c1cncnc1Nc1ccncc1` , readout=activity change, negative = inhibition) returns -25.5

Sure, the documented activity change, negative = inhibition for `O=C(c1cnccn1)N1CCC2(CC1)CCN(C(c1ccccc1)c1ccccc1)CC2` is 8.38

The compound `COc1cccc(-c2cncnc2N(C)Cc2ccco2)c1` showed activity change, negative = inhibition equal to -8.71
